Test system: Leukemia cell
Assay: Potency index, ratio of 5-fluorouracil GI50 to compound GI50 for human leukemia cells
Format: functional
The entries below come with measured RatioGI50 values attached.
Property label: RatioGI50

>>> obs_value("COc1cc(CSc2nc3ccc(C)cc3c(=O)n2-c2ccccc2)cc(OC)c1OC")
10
>>> obs_value("COc1cc(CSc2nc3ccc(C)cc3c(=O)n2Cc2ccccc2)cc(OC)c1OC")
10

---

The entries below come with measured TGI values attached.
Assay: Growth inhibition of human leukemia cells after 48 hrs by SRB assay
Format: functional
Details: Leukemia cell
Property label: TGI

>>> obs_value("COc1cc(CSc2nc3ccc(C)cc3c(=O)n2-c2ccccc2)cc(OC)c1OC")
"> 100 µM"
>>> obs_value("O=c1[nH]cc(F)c(=O)[nH]1")
"> 100 µM"
>>> obs_value("COc1cc2nc(SCc3cc(OC)c(OC)c(OC)c3)n(Cc3ccccc3)c(=O)c2cc1OC")
"> 100 µM"

---

The entries below come with measured inhibition of growth at 10 µM values attached.
Test: Growth inhibition of human COLO205 cells at 10 uM after 48 hrs by SRB assay relative to control
Assay type: functional
Details: COLO 205, 48 h, read-out: GI
Property label: inhibition of growth at 10 µM (%)

>>> obs_value("COc1ccc(-n2c(SCc3cc(OC)c(OC)c(OC)c3)nc3ccc(C)cc3c2=O)cc1")
67.3
>>> obs_value("COc1ccccc1-n1c(SCc2cc(OC)c(OC)c(OC)c2)nc2ccc(Cl)cc2c1=O")
72
>>> obs_value("COc1cc(CSc2nc3ccc(Cl)cc3c(=O)n2-c2ccccc2)cc(OC)c1OC")
15.5

---

Assay: Growth inhibition of human MOLT4 cells at 10 uM after 48 hrs by SRB assay relative to control
Assay type: functional
Conditions: MOLT-4, 48 h, read-out: GI
The entries below come with measured inhibition of growth at 10 µM values attached.
Property label: inhibition of growth at 10 µM (%)

>>> obs_value("COc1ccccc1-n1c(SCc2cc(OC)c(OC)c(OC)c2)nc2ccc(Cl)cc2c1=O")
84.7
>>> obs_value("COc1cc2nc(SCc3cc(OC)c(OC)c(OC)c3)n(-c3ccccc3OC)c(=O)c2cc1OC")
53.2
>>> obs_value("COc1ccc(-n2c(SCc3cc(OC)c(OC)c(OC)c3)nc3ccc(C)cc3c2=O)c(OC)c1")
88.7
>>> obs_value("COc1cc2nc(SCc3cc(OC)c(OC)c(OC)c3)n(Cc3ccccc3)c(=O)c2cc1OC")
83.3
>>> obs_value("COc1cc(CSc2nc3ccc(Cl)cc3c(=O)n2Cc2ccccc2)cc(OC)c1OC")
70.6
>>> obs_value("COc1ccc(-n2c(SCc3cc(OC)c(OC)c(OC)c3)nc3ccc(Cl)cc3c2=O)cc1")
27.6
>>> obs_value("COc1cc(CSc2nc3ccc(Cl)cc3c(=O)n2-c2ccccc2)cc(OC)c1OC")
30.3
>>> obs_value("COc1cc(CSc2nc3ccc(C)cc3c(=O)n2-c2ccccc2)cc(OC)c1OC")
78.2
>>> obs_value("COc1cc(CSc2nc3ccc(C)cc3c(=O)n2Cc2ccccc2)cc(OC)c1OC")
69.2

---

Experiment: Growth inhibition of human colon cancer cells after 48 hrs by SRB assay
Format: functional
Settings: Cancer cell lines
The entries below come with measured TGI values attached.
Property label: TGI

>>> obs_value("COc1ccccc1-n1c(SCc2cc(OC)c(OC)c(OC)c2)nc2ccc(Cl)cc2c1=O")
"> 100 µM"
>>> obs_value("COc1ccc(-n2c(SCc3cc(OC)c(OC)c(OC)c3)nc3ccc(C)cc3c2=O)cc1")
"> 100 µM"
>>> obs_value("O=c1[nH]cc(F)c(=O)[nH]1 [FLUOROURACIL]")
"> 100 µM"

---

Experiment: Growth inhibition of human SF295 cells at 10 uM after 48 hrs by SRB assay relative to control
Assay type: functional
Settings: SF-295, 48 h, read-out: GI
The entries below come with measured inhibition of growth at 10 µM values attached.
Property label: inhibition of growth at 10 µM

>>> obs_value("COc1ccc(-n2c(SCc3cc(OC)c(OC)c(OC)c3)nc3ccc(C)cc3c2=O)cc1")
"48.6%"
>>> obs_value("COc1cc2nc(SCc3cc(OC)c(OC)c(OC)c3)n(Cc3ccccc3)c(=O)c2cc1OC")
"80.3%"
>>> obs_value("COc1cc(CSc2nc3ccc(Cl)cc3c(=O)n2Cc2ccccc2)cc(OC)c1OC")
"71.1%"

---

The entries below come with measured inhibition of growth at 10 µM values attached.
Experiment: Growth inhibition of human RXF393 cells at 10 uM after 48 hrs by SRB assay relative to control
Type: functional
Details: RXF 393, 48 h, read-out: GI
Property label: inhibition of growth at 10 µM (%)

>>> obs_value("COc1cc(CSc2nc3ccc(Cl)cc3c(=O)n2Cc2ccccc2)cc(OC)c1OC")
86.9
>>> obs_value("COc1cc2nc(SCc3cc(OC)c(OC)c(OC)c3)n(Cc3ccccc3)c(=O)c2cc1OC")
95.5
>>> obs_value("COc1ccc(-n2c(SCc3cc(OC)c(OC)c(OC)c3)nc3ccc(C)cc3c2=O)cc1")
47.2
>>> obs_value("COc1ccc(CSc2nc3cc(OC)c(OC)cc3c(=O)n2-c2ccc(OC)cc2OC)cc1")
24.5
>>> obs_value("COc1cc(CSc2nc3ccc(C)cc3c(=O)n2-c2ccccc2)cc(OC)c1OC")
85.8

---

Test: Growth inhibition of human PC3 cells at 10 uM after 48 hrs by SRB assay relative to control
Assay type: functional
Conditions: PC-3, 48 h, read-out: GI
Property label: inhibition of growth at 10 µM

>>> obs_value("COc1ccc(-n2c(SCc3cc(OC)c(OC)c(OC)c3)nc3ccc(C)cc3c2=O)cc1")
"25%"
>>> obs_value("COc1cc2nc(SCc3cc(OC)c(OC)c(OC)c3)n(-c3ccccc3OC)c(=O)c2cc1OC")
"38.9%"
>>> obs_value("COc1ccccc1-n1c(SCc2cc(OC)c(OC)c(OC)c2)nc2ccc(Cl)cc2c1=O")
"80.4%"
>>> obs_value("COc1cc(CSc2nc3ccc(C)cc3c(=O)n2-c2ccccc2)cc(OC)c1OC")
"51%"
>>> obs_value("COc1cc(CSc2nc3ccc(Cl)cc3c(=O)n2-c2ccccc2)cc(OC)c1OC")
"26.8%"
>>> obs_value("COc1ccc(-n2c(SCc3cc(OC)c(OC)c(OC)c3)nc3ccc(Cl)cc3c2=O)cc1")
"37.7%"

---

Assay: Growth inhibition of human HCT15 cells at 10 uM after 48 hrs by SRB assay relative to control
Assay type: functional
Conditions: HCT-15, 48 h, read-out: GI
Property label: inhibition of growth at 10 µM (%)

>>> obs_value("COc1ccccc1-n1c(SCc2cc(OC)c(OC)c(OC)c2)nc2ccc(Cl)cc2c1=O")
72.2
>>> obs_value("COc1cc2nc(SCc3cc(OC)c(OC)c(OC)c3)n(-c3ccccc3OC)c(=O)c2cc1OC")
24.6
>>> obs_value("COc1cc(CSc2nc3ccc(C)cc3c(=O)n2-c2ccccc2)cc(OC)c1OC")
69.9
>>> obs_value("COc1cc(CSc2nc3ccc(C)cc3c(=O)n2Cc2ccccc2)cc(OC)c1OC")
70.8
>>> obs_value("COc1ccc(-n2c(SCc3cc(OC)c(OC)c(OC)c3)nc3ccc(Cl)cc3c2=O)cc1")
19.3

---

Experiment: Growth inhibition of human COLO205 cells at 10 uM after 48 hrs by SRB assay relative to control
Format: functional
Details: COLO 205, 48 h, read-out: GI
The entries below come with measured inhibition of growth at 10 µM values attached.
Property label: inhibition of growth at 10 µM

>>> obs_value("COc1ccc(CSc2nc3cc(OC)c(OC)cc3c(=O)n2-c2ccc(OC)cc2OC)cc1")
"< 10%"
>>> obs_value("COc1ccc(-n2c(SCc3cc(OC)c(OC)c(OC)c3)nc3ccc(Cl)cc3c2=O)cc1")
"< 10%"
>>> obs_value("COc1cc2nc(SCc3cc(OC)c(OC)c(OC)c3)n(-c3ccccc3OC)c(=O)c2cc1OC")
"< 10%"
